Molecular target: T1, recombinant BACE1 (BACE1 extracellular domain, R&D Systems Cat#931-AS) (UniProt P56817 22-457)
T1 construct: extracellular domain; also called BACE1 extracellular domain protein
T1 sequence (P56817 22-457): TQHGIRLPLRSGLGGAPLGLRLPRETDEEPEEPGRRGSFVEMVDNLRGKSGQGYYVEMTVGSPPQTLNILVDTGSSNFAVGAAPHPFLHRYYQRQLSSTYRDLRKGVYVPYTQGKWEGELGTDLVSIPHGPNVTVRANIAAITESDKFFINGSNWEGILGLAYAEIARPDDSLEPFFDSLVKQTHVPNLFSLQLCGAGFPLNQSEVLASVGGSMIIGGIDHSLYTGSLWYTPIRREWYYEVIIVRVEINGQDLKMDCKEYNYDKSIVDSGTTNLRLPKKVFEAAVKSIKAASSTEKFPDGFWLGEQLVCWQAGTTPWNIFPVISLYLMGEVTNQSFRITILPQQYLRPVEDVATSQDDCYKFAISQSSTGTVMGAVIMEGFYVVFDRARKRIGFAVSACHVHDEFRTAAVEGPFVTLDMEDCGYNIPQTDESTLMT
Experiment: SPR Biacore
Threshold-based label: koff under 0.0003 s⁻¹ gives yes, koff not under 0.0003 s⁻¹ gives no.

The examples below pair each entry with its known result.
2H8.34 (antibody, human IgG1, V domains shown, human IgG1/kappa; also called 2H8_HCvar4 + 2H8_LCvar6) VH: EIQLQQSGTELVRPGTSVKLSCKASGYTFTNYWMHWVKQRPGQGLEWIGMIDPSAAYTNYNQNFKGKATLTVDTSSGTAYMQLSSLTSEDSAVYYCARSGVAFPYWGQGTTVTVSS VL: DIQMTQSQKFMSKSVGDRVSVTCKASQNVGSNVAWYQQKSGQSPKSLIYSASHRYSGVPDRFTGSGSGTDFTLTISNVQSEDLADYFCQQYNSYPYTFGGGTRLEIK	no
2H8.09 (antibody, human IgG1, V domains shown, human IgG1/kappa; also called 2H8_HCvar3 + 2H8_LCvar2) VH: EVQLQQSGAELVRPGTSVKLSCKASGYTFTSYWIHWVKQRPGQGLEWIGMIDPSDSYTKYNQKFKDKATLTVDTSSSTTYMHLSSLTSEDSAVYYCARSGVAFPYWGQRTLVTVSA VL: DIVMTQSQKFMSTSVGDRVSVTCKASQNVGTNVAWYQQKPGQSPKALIYSASHRYSGVPDRFTGSGSGTDFTLTISNVQSEDLAEYFCQQYNSYMYTFGGGTKLEIK	yes
2H8.39 (antibody, human IgG1, V domains shown, human IgG1/kappa; also called 2H8_HCvar3 + 2H8_LCvar7) VH: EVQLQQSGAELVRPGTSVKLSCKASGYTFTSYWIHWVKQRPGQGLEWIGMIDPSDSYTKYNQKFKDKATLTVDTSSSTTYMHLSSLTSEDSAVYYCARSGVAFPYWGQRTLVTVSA VL: DILMTQSQKFMSTSVGDRVSVTCKASQNVGRNVAWYQQISGQSPKPLIYSASHRYSGVPDRFTGSGSGTDFTLTISNVQSEDLVEFFCQQYNSYPYTFGGGTKLEIK	yes

As a next step, examine the binder that follows.
Task item: Determine whether this binder shows koff lower than 0.0003 s⁻¹ (ties excluded): 2H8.28 (antibody, human IgG1, V domains shown, human IgG1/kappa; also called 2H8_HCvar4 + 2H8_LCvar5) VH: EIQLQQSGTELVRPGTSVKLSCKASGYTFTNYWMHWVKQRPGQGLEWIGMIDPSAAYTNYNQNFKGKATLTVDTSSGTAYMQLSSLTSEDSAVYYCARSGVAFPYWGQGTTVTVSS VL: DIVMTQSQKFMSTSVGDRVSVTCKASQNVGTNVAWYQQKSGQSPKALIYSASHRYSGVPDRFTGSGSGTDFTLTISNVQSEDLAEYFCQQYNSYPYTFGGGTKLEIK
Reply: no
